assay.target: Thyroid hormone receptor beta (Homo sapiens)
Sequence (P10828 whole entry): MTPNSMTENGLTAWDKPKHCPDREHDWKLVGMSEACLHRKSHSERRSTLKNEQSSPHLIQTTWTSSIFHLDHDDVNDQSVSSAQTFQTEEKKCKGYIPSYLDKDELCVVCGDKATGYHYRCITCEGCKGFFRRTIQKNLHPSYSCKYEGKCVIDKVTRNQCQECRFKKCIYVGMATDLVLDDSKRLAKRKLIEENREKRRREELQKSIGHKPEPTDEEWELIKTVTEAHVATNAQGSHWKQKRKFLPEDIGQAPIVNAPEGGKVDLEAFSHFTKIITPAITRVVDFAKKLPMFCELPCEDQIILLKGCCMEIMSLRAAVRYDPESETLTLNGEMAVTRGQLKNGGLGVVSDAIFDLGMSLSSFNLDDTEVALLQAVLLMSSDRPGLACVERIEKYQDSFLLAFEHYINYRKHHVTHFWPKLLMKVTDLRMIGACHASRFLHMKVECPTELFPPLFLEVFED
reported.endpoint: pIC50
Expect pIC50 as a plain number equal to -log10 of the molar concentration.

Task: Return pIC50 measured with Thyroid hormone receptor beta (Homo sapiens) given this compound: Cc1cc(OCC(=O)O)cc(C)c1Cc1cc(-c2ccc([N+](=O)[O-])cc2)c(O)c(C(C)C)c1
Result: 6.17

----------
Attribute: IC50
assay.target: Thyroid hormone receptor alpha (Homo sapiens, UniProt P10827)
Sequence (P10827 whole entry): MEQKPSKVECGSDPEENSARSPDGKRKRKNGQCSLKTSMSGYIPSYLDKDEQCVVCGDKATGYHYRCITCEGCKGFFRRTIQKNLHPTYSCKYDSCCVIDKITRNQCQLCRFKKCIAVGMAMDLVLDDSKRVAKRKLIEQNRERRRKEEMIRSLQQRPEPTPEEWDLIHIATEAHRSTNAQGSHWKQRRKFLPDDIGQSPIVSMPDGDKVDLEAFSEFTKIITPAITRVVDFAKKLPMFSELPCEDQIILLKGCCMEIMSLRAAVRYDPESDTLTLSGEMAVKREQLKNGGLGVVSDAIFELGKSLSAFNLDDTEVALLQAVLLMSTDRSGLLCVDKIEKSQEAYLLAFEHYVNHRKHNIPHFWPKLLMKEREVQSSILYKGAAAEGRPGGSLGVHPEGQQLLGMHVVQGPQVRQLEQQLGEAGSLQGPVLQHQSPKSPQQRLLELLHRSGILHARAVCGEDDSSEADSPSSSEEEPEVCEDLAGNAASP
Give the number first and the unit second.

- smiles.text: "Cc1cc(OCC(=O)O)cc(C)c1Cc1cc(-c2ccc([N+](=O)[O-])cc2)c(O)c(C(C)C)c1"
  reported.result: "5000 nM"

// below: IC50 requested for another compound
Task: Reported IC50, compound Cc1cc(OCC(=O)O)cc(C)c1Cc1cc(C#Cc2ccc([N+](=O)[O-])cc2)c(O)c(C(C)C)c1 : ____
Result: 950 nM

----------
assay.target: Thyroid hormone receptor alpha (Homo sapiens)
pKd: −log10 of the molar value.
Decide by pKd: equal to or exceeding 7 means class 1, less means class 0.

- smiles.text: "Cc1cc(OCC(=O)O)cc(C)c1Cc1cc(-c2ccc([N+](=O)[O-])cc2)c(O)c(C(C)C)c1"
  class.assignment: "class 0"

Task: Could you please find out whether Cc1cc(OCC(=O)O)cc(C)c1Cc1cc(C#Cc2ccccc2)c(O)c(C(C)C)c1 has pKd that meets 7 or exceeds it?
Result: class 0

Task: Could you please find out whether Cc1cc(OCC(=O)O)cc(C)c1Cc1cc(C#Cc2ccc(N)cc2)c(O)c(C(C)C)c1 has pKd that meets 7 or exceeds it?
Result: class 0

Task: Could you please find out whether CCCCCc1ccc(C#Cc2cc(Cc3c(C)cc(OCC(=O)O)cc3C)cc(C(C)C)c2O)cc1 has pKd that meets 7 or exceeds it?
Result: class 1
